target: chimeric OX40 construct 1549: Human OX40 with mouse domains 1A and 4B and region non-annotated extracellular region (aa 30-65 and aa 127-214) (human; mouse) (UniProt P47741); assay: flow cytometry, transfected 293-F cells
This section presents binders with their documented relative MFI compared to isotype control values.
attribute measured: relative MFI compared to isotype control

>  <binder>
anti-OX40 antibody 1170/1171 (antibody, V domains shown) VH: EVQLLESGGGLVQPGGSLRLSCAASGFTFGGYYMSWVRQAPGKGLEWVSYIPGSGGSTYYADSVKGRFTISRDNSKNTLYLQMNSLRAEDTAVYYCARYDYYWMDYWGQGTLVTVSS VL: DIQMTQSPSSLSASVGDRVTITCRASQSISSYLNWYQQKPGKAPKLLIYAASSLQSGVPSRFSGSGSGTDFTLTISSLQPEDFATYYCQQGHGSYPHTFGQGTKLEIK

>  <experimental value>
12.1

$$$$
>  <binder>
anti-OX40 antibody 1166/1167 (antibody, V domains shown) VH: EVQLLESGGGLVQPGGSLRLSCAASGFTFGGYYMSWVRQAPGKGLEWVSAISGSGGSTYYADSVKGRFTISRDNSKNTLYLQMNSLRAEDTAVYYCARYDYASMDYWGQGTLVTVSS VL: DIQMTQSPSSLSASVGDRVTITCRASQSISSYLNWYQQKPGKAPKLLIYAASSLQSGVPSRFSGSGSGTDFTLTISSLQPEDFATYYCQQYYWYGLSTFGQGTKLEIK

>  <experimental value>
11.3

$$$$
>  <binder>
anti-OX40 antibody 1526/1527 (antibody, V domains shown) VH: EVQLLESGGGLVQPGGSLRLSCAASGFTFSGYSMYWVRQAPGKGLEWVSGIGYSGYGTYYADSVKGRFTISRDNSKNTLYLQMNSLRAEDTAVYYCARYYFHDYAAYSLDYWGQGTLVTVSS VL: DIQMTQSPSSLSASVGDRVTITCRASQSISSYLNWYQQKPGKAPKLLIYAASSLQSGVPSRFSGSGSGTDFTLTISSLQPEDFATYYCQQYGSDSLLTFGQGTKLEIK

>  <experimental value>
8.5

$$$$
>  <binder>
anti-OX40 antibody 1524/1525 (antibody, V domains shown) VH: EVQLLESGGGLVQPGGSLRLSCAASGFTFGSYYMGWVRQAPGKGLEWVSSIGSYYGYTYYADSVKGRFTISRDNSKNTLYLQMNSLRAEDTAVYYCARHDYGALDYWGQGTLVTVSS VL: DIQMTQSPSSLSASVGDRVTITCRASQSISSYLNWYQQKPGKAPKLLIYAASSLQSGVPSRFSGSGSGTDFTLTISSLQPEDFATYYCQQYGPSGLFTFGQGTKLEIK

>  <experimental value>
11.2

$$$$
>  <binder>
anti-OX40 antibody 1482/1483 (antibody, V domains shown) VH: EVQLLESGGGLVQPGGSLRLSCAASGFTFSSYAMSWVRQAPGKGLEWVSYISYYSGYTYYADSVKGRFTISRDNSKNTLYLQMNSLRAEDTAVYYCARGYGYLDYWGQGTLVTVSS VL: DIQMTQSPSSLSASVGDRVTITCRASQSISSYLNWYQQKPGKAPKLLIYAASSLQSGVPSRFSGSGSGTDFTLTISSLQPEDFATYYCQQYGSLLTFGQGTKLEIK

>  <experimental value>
8.7

$$$$
>  <binder>
anti-OX40 antibody 1514/1515 (antibody, V domains shown) VH: EVQLLESGGGLVQPGGSLRLSCAASGFTFGYYYMSWVRQAPGKGLEWVSGISSYGSYTYYADSVKGRFTISRDNSKNTLYLQMNSLRAEDTAVYYCARSGYSNWANSFDYWGQGTLVTVSS VL: DIQMTQSPSSLSASVGDRVTITCRASQSISSYLNWYQQKPGKAPKLLIYAASSLQSGVPSRFSGSGSGTDFTLTISSLQPEDFATYYCQQGDYTLFTFGQGTKLEIK

>  <experimental value>
10.6

$$$$
